- ASSAY_TARGET: Phosphodiesterase 3 (Homo sapiens, UniProt Q14432+Q13370)
- ASSAY_COMMENT: Inhibition of human platelet c-AMP phosphodiesterase PDE 3
MEASURED_QUANTITY: IC50 (nM)
I only need the number, in nM, no unit after it.

query: # input molecule: O=C(CCCOc1ccc2[nH]c3nc(O)nc-3cc2c1)N1CCN(c2ccccn2)CC1 ; wanted: its IC50
result: 5

New cases:
query: Look up IC50: O=C(CCCOc1ccc2[nH]c3nc(O)nc-3cc2c1)N1CCN(c2ncccn2)CC1
result: 7

query: What do you get for O=C(O)C1CCN(c2ccc3[nH]c4nc(O)nc-4cc3c2)CC1 ?
result: 20

query: # repeat for O=C(CCCOc1ccc2[nH]c3nc(O)nc-3cc2c1)N1CCN(CCc2ccccc2)CC1
result: 2

query: One more molecule: O=C(CCCOc1ccc2[nH]c3nc(O)nc-3cc2c1)N1CCN(Cc2ccc(F)cc2)CC1
result: 2

query: Repeat for the following molecule: CN(CCc1ccccn1)C(=O)CCCOc1ccc2[nH]c3nc(O)nc-3cc2c1
result: 4.5
